Documented EC50 across a set of molecules
System: OVCAR3 cells
Assay: MTT cell proliferation, OVCAR3
Format: cell-based
Conditions: Homo sapiens, OVCAR-3, 96 h, read-out: EC50 anti-proliferative, OVCAR3
Enter your answer as a number in µM; do not include the unit.

CC(C)NC(=O)N1CC[C@H](NC2=Nc3cc(F)ccc3N(CC(F)F)c3ccc(Cl)cc32)C1 ... 8.9

Provide one value: measured EC50 of O=C1CCC(N2C(=O)c3cccc(NCCCCCCCCNC(=O)N4CC[C@H](NC5=Nc6cc(F)ccc6N(CC(F)F)c6ccc(Cl)cc65)C4)c3C2=O)C(=O)N1 (some centres unmarked)
0.1
